Items are presented alongside their recorded inhibition at 1 µM.
- MEASUREMENT TARGET: serotonine transporter (SERT) receptor (Homo sapiens)
- Construct: expressed in transfected cells; host or cells: CHO cells
- Sequence (P31645 whole entry): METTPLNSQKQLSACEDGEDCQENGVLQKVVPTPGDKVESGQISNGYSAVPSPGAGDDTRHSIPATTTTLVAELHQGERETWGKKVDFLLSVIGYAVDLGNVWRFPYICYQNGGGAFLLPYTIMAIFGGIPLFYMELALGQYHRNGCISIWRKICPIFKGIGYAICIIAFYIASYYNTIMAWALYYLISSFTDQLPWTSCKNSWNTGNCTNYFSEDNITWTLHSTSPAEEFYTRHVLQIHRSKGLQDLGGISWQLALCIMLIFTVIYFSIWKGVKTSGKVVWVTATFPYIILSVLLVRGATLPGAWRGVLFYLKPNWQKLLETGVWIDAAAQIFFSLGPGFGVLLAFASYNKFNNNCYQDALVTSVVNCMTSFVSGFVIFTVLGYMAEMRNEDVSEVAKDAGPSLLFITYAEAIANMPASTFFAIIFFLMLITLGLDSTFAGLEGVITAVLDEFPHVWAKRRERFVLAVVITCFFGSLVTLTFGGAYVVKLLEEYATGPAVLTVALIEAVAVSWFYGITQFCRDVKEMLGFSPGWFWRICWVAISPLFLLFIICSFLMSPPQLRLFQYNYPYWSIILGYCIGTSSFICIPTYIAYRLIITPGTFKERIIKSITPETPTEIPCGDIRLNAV
- ASSAY PROTOCOL: Binding assay SERT (h), [3H]imipramine, CHO cells
- ASSAY CONTEXT: read-out: SERT [%]
Report the figure in % without appending any unit label.

Examples with answers:
O=S(=O)(NCCCN1CCN(c2nsc3ccccc23)CC1)c1cccc(Br)c1	79
O=C1COc2c(cccc2N2CCN(CCCCNS(=O)(=O)c3ccc4ccccc4c3)CC2)N1	13
O=S(=O)(NCCCCN1CCC(c2noc3cc(F)ccc23)CC1)c1cccc(C(F)(F)F)c1	9

Inquiry: Provide inhibition at 1 µM value for the following molecule: Cc1[nH]c2ccc(Cl)cc2c1C1=CCN(CCNS(=O)(=O)c2ccc(Cl)cc2)CC1
Reply text: 32

Inquiry: Provide inhibition at 1 µM value for the following molecule: O=S(=O)(NCCCCN1CCC(c2noc3cc(F)ccc23)CC1)c1cccs1
Reply text: 20

Inquiry: Provide inhibition at 1 µM value for the following molecule: O=S(=O)(NCCCN1CCC(c2noc3cc(F)ccc23)CC1)c1cccs1
Reply text: 3

Inquiry: Provide inhibition at 1 µM value for the following molecule: O=S(=O)(NCCCN1CCN(c2cccc3c2OCCO3)CC1)c1ccc(F)cc1
Reply text: -18

Inquiry: Provide inhibition at 1 µM value for the following molecule: O=S(=O)(NCCCCN1CCN(c2noc3ccccc23)CC1)c1ccc(-c2ccccc2)cc1
Reply text: 24

====

- MEASUREMENT TARGET: UniProt:P28223
- Sequence (P28223 whole entry): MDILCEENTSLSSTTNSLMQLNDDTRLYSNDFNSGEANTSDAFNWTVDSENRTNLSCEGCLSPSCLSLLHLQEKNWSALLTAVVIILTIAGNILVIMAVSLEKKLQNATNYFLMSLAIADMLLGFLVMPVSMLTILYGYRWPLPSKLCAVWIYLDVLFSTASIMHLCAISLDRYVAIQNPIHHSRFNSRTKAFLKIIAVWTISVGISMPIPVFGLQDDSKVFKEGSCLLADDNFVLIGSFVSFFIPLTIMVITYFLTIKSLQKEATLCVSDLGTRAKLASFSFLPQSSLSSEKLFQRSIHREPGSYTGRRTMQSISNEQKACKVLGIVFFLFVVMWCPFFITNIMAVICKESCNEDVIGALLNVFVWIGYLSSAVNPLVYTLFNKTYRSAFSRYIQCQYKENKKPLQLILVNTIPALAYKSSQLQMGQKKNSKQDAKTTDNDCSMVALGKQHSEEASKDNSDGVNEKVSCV
- ASSAY PROTOCOL: Binding assay 5-HT2A (h), [3H]ketanserin, HEK-293 cells
- Design: expressed in transfected cells; host or cells: HEK-293 cells
- ASSAY CONTEXT: read-out: 5-HT2A
- Method: The specific ligand binding to the receptors is defined as the difference between the total binding and the nonspecific binding determined in the presence of an excess of so unlabelled ligand. The specific Ligand binding to the receptor is defined as the difference between total and non-specific binding determined in the presence of an excess of unlabelled ligand. The compounds were tested at a concentration of 1×10^−6 M, and scintillation counting was the method of detection of ligand binding.
READOUT KIND: inhibition at 1 µM
Field: value (include unit after the number)

COc1cccc(S(=O)(=O)NCCCN2CCC(c3noc4cc(F)ccc34)CC2)c1 [Compound 332]	97%
O=S(=O)(NCCCCN1CCN(c2cccc3[nH]ccc23)CC1)c1cnc2ccccn12 [Compound 30]	67%
O=S(=O)(NCCCCN1CCN(c2cccc3c2OCCO3)CC1)c1cccc2ccccc12 [Compound 385]	77%

Inquiry: Provide inhibition at 1 µM value for the following molecule: O=S(=O)(NCCCN1CCN(c2cccc3c2OCCO3)CC1)c1ccc2c(c1)CCO2 [Compound 417]
Reply text: -48%

====

Items are presented alongside their recorded σ [%].
- Tested on: sigma σ receptor
- ASSAY PROTOCOL: Binding assay σ (non-selective), [3H]DTG, rat cerebral cortex
- ASSAY CONTEXT: percent inhibition of control specific binding; compounds tested at 1×10^−6 M
Report the figure in % without appending any unit label.

Examples with answers:
O=S(=O)(NCCCCN1CCN(c2noc3ccccc23)CC1)c1ccc2ccccc2c1	40
O=c1[nH]c2cccc(N3CCN(CCCCNS(=O)(=O)c4cccc5ccccc45)CC3)c2[nH]1	6
Cc1c(S(=O)(=O)NCCCN2CCC(c3noc4cc(F)ccc34)CC2)sc2ccc(F)cc12	74
O=S(=O)(NCCCCN1CCN(c2nsc3ccccc23)CC1)c1cc2ccc(Cl)cc2s1	51
O=c1[nH]c2cccc(N3CCN(CCCNS(=O)(=O)c4cccc5ccccc45)CC3)c2[nH]1	9

Inquiry: Provide σ [%] value for the following compound: O=S(=O)(NCCCN1CCN(c2nsc3ccccc23)CC1)c1ccc(F)cc1
Reply text: 64

Inquiry: Provide σ [%] value for the following compound: Cc1c(S(=O)(=O)NCCCCN2CCN(c3nsc4ccccc34)CC2)sc2ccc(F)cc12
Reply text: 62

Inquiry: Provide σ [%] value for the following compound: Cc1cccc(S(=O)(=O)NCCN2CCC(c3noc4cc(F)ccc34)CC2)c1
Reply text: 76
